Cited source: ChEMBL document CHEMBL4699539

biological target: Integrin alpha-4/beta-1 (Homo sapiens, UniProt P05556+P13612); assay: Inhibition of alpha4beta1 integrin (unknown origin) by solid phase binding assay
Sequence (P05556 whole entry): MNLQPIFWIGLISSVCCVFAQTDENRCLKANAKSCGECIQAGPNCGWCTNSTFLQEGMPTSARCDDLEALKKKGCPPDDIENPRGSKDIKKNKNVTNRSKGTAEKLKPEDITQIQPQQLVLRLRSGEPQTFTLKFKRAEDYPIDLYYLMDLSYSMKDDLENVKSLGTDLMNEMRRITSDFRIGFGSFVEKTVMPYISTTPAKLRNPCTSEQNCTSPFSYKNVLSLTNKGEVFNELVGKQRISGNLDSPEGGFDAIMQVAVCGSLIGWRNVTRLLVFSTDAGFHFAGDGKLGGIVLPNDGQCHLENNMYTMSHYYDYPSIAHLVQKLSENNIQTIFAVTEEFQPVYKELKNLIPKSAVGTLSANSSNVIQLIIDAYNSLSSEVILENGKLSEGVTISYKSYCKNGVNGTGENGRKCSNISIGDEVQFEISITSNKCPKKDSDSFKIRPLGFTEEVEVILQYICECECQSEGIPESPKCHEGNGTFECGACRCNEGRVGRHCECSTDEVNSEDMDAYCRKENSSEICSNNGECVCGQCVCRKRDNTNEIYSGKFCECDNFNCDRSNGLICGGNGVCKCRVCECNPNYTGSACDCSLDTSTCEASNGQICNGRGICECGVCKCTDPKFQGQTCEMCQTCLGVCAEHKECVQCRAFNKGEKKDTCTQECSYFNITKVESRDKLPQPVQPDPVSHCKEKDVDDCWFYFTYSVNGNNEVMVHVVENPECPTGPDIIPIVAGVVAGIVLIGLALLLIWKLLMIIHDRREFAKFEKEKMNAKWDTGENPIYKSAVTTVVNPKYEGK
Sequence (P13612 whole entry): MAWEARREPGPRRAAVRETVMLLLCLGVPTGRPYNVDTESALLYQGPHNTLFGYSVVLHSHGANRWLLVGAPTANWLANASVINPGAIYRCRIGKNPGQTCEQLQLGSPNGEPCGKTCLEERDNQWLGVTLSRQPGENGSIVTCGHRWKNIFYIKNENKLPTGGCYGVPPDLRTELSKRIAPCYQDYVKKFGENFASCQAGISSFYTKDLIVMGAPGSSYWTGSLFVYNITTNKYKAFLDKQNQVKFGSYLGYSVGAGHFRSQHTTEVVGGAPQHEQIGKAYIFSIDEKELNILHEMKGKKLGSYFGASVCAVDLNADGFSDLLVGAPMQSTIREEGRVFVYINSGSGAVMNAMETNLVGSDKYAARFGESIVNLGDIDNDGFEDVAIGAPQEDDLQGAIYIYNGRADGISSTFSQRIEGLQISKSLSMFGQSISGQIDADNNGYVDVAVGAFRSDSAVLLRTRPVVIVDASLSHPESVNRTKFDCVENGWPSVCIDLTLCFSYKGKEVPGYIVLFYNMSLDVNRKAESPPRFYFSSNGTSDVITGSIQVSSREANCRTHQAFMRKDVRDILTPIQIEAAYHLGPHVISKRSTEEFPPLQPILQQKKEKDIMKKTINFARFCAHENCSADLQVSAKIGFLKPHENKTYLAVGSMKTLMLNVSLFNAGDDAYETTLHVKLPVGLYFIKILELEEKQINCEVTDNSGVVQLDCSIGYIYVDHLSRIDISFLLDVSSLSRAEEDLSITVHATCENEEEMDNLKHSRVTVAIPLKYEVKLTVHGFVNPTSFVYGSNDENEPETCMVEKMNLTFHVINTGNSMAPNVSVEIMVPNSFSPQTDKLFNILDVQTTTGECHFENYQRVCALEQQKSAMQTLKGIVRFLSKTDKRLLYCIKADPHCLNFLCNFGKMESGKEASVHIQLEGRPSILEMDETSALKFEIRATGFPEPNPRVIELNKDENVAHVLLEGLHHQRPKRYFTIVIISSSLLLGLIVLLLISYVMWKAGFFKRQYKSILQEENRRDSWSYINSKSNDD
// values below are reported IC50
Kindly provide the numeric value in nM only, without the unit symbol.

Study these solved cases before continuing.
>  <smi>
N=C(N)Nc1cc(NC(=O)CCCC(=O)NC23CC4CC(CC(C4)C2)C3)cc(C(=O)NCC(=O)NC[C@H](NC(=O)[C@@H]2CCCN2S(=O)(=O)c2ccccc2)C(=O)O)c1

>  <numericReadout>
161

$$$$
>  <smi>
N=C(N)Nc1cc(NC(=O)CCCNC(=O)C23CC4CC(CC(C4)C2)C3)cc(C(=O)NCC(=O)NC[C@H](NC(=O)[C@@H]2CCCN2S(=O)(=O)c2ccccc2)C(=O)O)c1

>  <numericReadout>
105

$$$$
>  <smi>
N=C(N)Nc1cc(NC(=O)CCNC(=O)C23CC4CC(CC(C4)C2)C3)cc(C(=O)NCC(=O)NC[C@H](NC(=O)[C@@H]2CCCN2S(=O)(=O)c2ccccc2)C(=O)O)c1

>  <numericReadout>
100

$$$$
>  <smi>
N=C(N)Nc1cc(NC(=O)CNC(=O)C23CC4CC(CC(C4)C2)C3)cc(C(=O)NCC(=O)NC[C@H](NC(=O)[C@@H]2CCCN2S(=O)(=O)c2ccccc2)C(=O)O)c1

>  <numericReadout>
136

$$$$

Now look at this entry.
For this compound ( N=C(N)Nc1cc(NC(=O)CCCCNC(=O)C23CC4CC(CC(C4)C2)C3)cc(C(=O)NCC(=O)NC[C@H](NC(=O)[C@@H]2CCCN2S(=O)(=O)c2ccccc2)C(=O)O)c1 ), measured IC50 is 182

====

target: Integrin alpha-V/beta-6 (Homo sapiens, UniProt P06756+P18564); assay: Inhibition of alphavbeta6 integrin (unknown origin) by solid phase binding assay
Sequence (P18564 22-788 limits assumed, one chain of several): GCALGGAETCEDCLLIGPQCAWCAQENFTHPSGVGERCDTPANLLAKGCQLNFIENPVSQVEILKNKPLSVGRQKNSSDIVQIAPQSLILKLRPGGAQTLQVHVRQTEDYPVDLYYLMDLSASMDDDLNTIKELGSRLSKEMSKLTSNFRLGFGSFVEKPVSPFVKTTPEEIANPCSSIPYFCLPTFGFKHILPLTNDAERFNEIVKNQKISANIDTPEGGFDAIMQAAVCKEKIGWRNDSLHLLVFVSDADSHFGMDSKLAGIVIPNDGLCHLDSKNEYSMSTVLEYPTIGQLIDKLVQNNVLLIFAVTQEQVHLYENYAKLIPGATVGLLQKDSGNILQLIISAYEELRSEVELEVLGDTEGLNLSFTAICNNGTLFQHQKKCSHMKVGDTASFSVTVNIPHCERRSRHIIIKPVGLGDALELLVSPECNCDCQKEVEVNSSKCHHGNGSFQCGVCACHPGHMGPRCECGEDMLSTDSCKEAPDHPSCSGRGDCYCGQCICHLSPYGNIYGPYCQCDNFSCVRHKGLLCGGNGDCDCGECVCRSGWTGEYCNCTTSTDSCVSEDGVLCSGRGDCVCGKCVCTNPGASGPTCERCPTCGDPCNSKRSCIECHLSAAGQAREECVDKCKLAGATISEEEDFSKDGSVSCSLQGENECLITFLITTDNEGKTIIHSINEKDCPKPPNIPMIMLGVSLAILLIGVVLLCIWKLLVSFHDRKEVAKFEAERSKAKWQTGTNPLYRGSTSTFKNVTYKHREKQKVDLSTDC
// values below are reported IC50
Kindly provide the numeric value in nM only, without the unit symbol.

>  <smi>
N=C(N)Nc1cc(NC(=O)CCCNC(=O)C23CC4CC(CC(C4)C2)C3)cc(C(=O)NCC(=O)NC[C@H](NC(=O)[C@@H]2CCCN2S(=O)(=O)c2ccccc2)C(=O)O)c1

>  <targetUnderTest>
Integrin alpha-V/beta-6 (Homo sapiens, UniProt P06756+P18564)

>  <measurementUnits>
nM

>  <numericReadout>
2760

$$$$

For this compound ( N=C(N)Nc1cc(NC(=O)CCCCNC(=O)C23CC4CC(CC(C4)C2)C3)cc(C(=O)NCC(=O)NC[C@H](NC(=O)[C@@H]2CCCN2S(=O)(=O)c2ccccc2)C(=O)O)c1 ), measured IC50 is 1870

====

target: Integrin alpha-5/beta-1 (Homo sapiens, UniProt P05556+P08648); assay: Inhibition of alpha5beta1 integrin in human SW480 cells assessed as inhibition of cell adhesion to fibronectin incubated for 60 mins by crystal violet staining based analysis
measurementType: pIC50
In plain terms, pIC50 is the concentration in mol/L turned into minus its base-10 logarithm.

For this compound ( N=C(N)Nc1cc(NC(=O)CCCN)cc(C(=O)NCC(=O)NC[C@H](NC(=O)[C@@H]2CCCN2S(=O)(=O)c2ccccc2)C(=O)O)c1 ), measured pIC50 is 7.49

====

// values below are reported pIC50
molecular target: Integrin alpha-V/beta-3 (Homo sapiens, UniProt P05106+P06756); experiment: Inhibition of alphavbeta3 integrin (unknown origin) expressed in human SW480 cells transfected with human beta3 assessed as inhibition of cell adhesion to fibrinogen incubated for 60 mins by crystal violet staining based analysis
Sequence (P05106 27-788 limits assumed): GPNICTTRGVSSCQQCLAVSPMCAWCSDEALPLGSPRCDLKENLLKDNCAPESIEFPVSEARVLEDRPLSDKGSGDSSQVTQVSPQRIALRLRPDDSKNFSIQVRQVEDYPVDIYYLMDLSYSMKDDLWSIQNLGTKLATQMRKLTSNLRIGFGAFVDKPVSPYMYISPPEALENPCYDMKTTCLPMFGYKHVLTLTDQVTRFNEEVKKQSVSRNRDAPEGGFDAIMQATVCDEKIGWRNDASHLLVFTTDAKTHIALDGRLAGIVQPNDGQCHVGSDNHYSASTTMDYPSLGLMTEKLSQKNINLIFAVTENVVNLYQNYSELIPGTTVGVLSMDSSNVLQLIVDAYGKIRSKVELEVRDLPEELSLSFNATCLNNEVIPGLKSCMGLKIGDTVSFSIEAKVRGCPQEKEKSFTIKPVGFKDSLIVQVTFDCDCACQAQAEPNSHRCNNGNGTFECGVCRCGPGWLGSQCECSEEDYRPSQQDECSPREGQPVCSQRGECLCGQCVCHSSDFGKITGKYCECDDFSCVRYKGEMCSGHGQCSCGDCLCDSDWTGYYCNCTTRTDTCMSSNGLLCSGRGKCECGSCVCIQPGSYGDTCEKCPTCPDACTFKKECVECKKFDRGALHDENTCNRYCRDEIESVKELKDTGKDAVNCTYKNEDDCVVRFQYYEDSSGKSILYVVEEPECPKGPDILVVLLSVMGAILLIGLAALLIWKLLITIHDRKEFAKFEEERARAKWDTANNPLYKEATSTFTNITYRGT
Sequence (P06756 31-889 limits assumed): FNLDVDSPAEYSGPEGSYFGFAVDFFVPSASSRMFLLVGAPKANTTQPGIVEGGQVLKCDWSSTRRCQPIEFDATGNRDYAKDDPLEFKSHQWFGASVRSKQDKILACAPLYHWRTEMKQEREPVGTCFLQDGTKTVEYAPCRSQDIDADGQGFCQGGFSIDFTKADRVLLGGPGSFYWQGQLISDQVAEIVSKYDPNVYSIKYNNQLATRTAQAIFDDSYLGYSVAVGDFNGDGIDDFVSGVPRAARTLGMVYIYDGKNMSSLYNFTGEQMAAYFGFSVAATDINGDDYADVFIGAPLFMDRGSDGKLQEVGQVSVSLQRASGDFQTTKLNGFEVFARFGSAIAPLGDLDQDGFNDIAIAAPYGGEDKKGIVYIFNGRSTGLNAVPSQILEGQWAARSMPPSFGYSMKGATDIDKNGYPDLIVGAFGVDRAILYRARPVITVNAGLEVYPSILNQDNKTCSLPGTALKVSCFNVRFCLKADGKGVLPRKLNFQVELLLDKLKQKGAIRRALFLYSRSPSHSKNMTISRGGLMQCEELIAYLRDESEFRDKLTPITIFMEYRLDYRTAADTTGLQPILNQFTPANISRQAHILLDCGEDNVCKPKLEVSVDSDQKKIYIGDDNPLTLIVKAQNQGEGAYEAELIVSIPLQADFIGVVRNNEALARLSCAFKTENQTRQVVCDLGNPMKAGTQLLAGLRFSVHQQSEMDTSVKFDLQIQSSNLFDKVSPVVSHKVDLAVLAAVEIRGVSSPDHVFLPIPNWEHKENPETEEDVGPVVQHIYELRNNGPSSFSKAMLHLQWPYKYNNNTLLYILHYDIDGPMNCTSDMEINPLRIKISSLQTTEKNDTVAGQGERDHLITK
Sequence (P06756 891-1048 limits assumed): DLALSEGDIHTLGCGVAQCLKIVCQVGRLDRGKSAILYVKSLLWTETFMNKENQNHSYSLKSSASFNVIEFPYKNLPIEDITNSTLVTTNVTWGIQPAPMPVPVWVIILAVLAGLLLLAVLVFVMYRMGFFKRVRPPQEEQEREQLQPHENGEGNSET
In plain terms, pIC50 is the concentration in mol/L turned into minus its base-10 logarithm.

>  <smi>
N=C(N)NCCCCCC(=O)NC[C@H](NC(=O)[C@@H]1CCCN1S(=O)(=O)c1ccccc1)C(=O)O

>  <pIC50>
5.00

$$$$
>  <smi>
N=C(N)Nc1cccc(C(=O)NNC(=O)NC[C@H](NC(=O)[C@@H]2CCCN2S(=O)(=O)c2ccccc2)C(=O)O)c1

>  <pIC50>
5.19

$$$$

For this compound ( N=C(N)Nc1cc(NC(=O)CCCN)cc(C(=O)NCC(=O)NC[C@H](NC(=O)[C@@H]2CCCN2S(=O)(=O)c2ccccc2)C(=O)O)c1 ), measured pIC50 is 4.25

For this compound ( CCCCCCCC(=O)Nc1cc(NC(=N)N)cc(C(=O)NCC(=O)NC[C@H](NC(=O)[C@@H]2CCCN2S(=O)(=O)c2ccccc2)C(=O)O)c1 ), measured pIC50 is 4.77

For this compound ( N=C(N)Nc1cc(NC(=O)CCCNC(=O)C23CC4CC(CC(C4)C2)C3)cc(C(=O)NCC(=O)NC[C@H](NC(=O)[C@@H]2CCCN2S(=O)(=O)c2ccccc2)C(=O)O)c1 ), measured pIC50 is 5.06

For this compound ( N=C(N)NCCCCCCNC(=O)NC[C@H](NC(=O)[C@@H]1CCCN1S(=O)(=O)c1ccccc1)C(=O)O ), measured pIC50 is 4.82
